# credit: patent US20250171437A1

The following compounds are listed with their measured AC50 values.
Target: human PAH with the R408W mutation (A375 R408W cells) (Homo sapiens, UniProt P00439, R408W)
Construct: expressed in transfected cells
Sequence (P00439 whole entry R408W): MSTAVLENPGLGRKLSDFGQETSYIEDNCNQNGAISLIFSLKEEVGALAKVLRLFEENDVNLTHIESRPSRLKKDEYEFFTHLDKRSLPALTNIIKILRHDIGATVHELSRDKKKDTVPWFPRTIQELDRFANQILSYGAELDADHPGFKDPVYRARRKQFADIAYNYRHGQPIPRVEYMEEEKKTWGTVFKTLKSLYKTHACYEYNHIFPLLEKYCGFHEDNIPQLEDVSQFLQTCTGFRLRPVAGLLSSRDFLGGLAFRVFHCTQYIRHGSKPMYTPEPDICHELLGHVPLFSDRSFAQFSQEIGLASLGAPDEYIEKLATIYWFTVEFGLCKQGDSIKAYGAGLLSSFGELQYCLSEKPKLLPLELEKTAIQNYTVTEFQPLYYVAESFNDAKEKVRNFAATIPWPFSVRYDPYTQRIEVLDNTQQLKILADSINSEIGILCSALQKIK
Experiment: Cell Based Phenylalanine Flux Assay
Settings: A375 cells expressing R408W PAH; 24 hrs with compound, then 20 μM sepiapterin and 800 μM 13C9,15N-Phenylalanine for 4 hours; 13C-Tyrosine by LC-MS; average where tested multiple times

Example entries begin here.
[
  {
    "compound": "CC(C)(O)c1nnc(C(=O)N2CCc3[nH]cnc3C2c2nc3cc(F)ccc3o2)o1 (centres unmarked)",
    "AC50": "≥ 5 µM"
  },
  {
    "compound": "O=C(c1nncn1C1CC1)N1CCc2[nH]cnc2C1c1nc2cc(F)ccc2o1 (centres unmarked)",
    "AC50": "1 to 5 µM"
  },
  {
    "compound": "CC(C)(O)c1nc(C(=O)N2CCc3[nH]cnc3C2c2nc3c(F)cccc3o2)no1 (centres unmarked)",
    "AC50": "1 to 5 µM"
  },
  {
    "compound": "Cn1nc(C(F)F)nc1C(=O)N1CCc2[nH]cnc2C1c1nc2c(F)cc(F)cc2o1 (centres unmarked)",
    "AC50": "1 to 5 µM"
  },
  {
    "compound": "O=C(c1nnc(N2CCC(F)CC2)o1)N1CCc2[nH]cnc2C1c1nc2cc(F)ccc2o1 (centres unmarked)",
    "AC50": "1 to 5 µM"
  }
]

Consider the compound shown here: Cc1ccc2nc(C3c4nc[nH]c4CCN3C(=O)c3cncs3)oc2c1 (centres unmarked) What is its recorded AC50?
≥ 5 µM

Try this compound too: COCCNc1ccc2c(C(=O)N3CCc4[nH]cnc4C3c3nc4cc(F)ccc4o3)cnn2c1 (centres unmarked)
≥ 5 µM

Now consider NCCc1ccc2c(C(=O)N3CCc4[nH]cnc4C3c3nc4cc(F)ccc4o3)cnn2c1 (single isomer, unassigned) [4S enantiomer of 2-{3-[4-(5-fluoro-1,3-benzoxazol-2-yl)-1H,4] and answer again.
≥ 5 µM

// query: CN(C)CCNc1ccc2c(C(=O)N3CCc4[nH]cnc4C3c3nc4cc(F)ccc4o3)cnn2c1 (single isomer, unassigned) [4S enantiomer of N-[2-(dimethylamino)ethyl]-3-[4-(5-fluoro-1]
≥ 5 µM

Param item: O=C(c1nncn1C1CC1)N1CCc2[nH]cnc2C1c1nc2ccc(F)cc2o1 (centres unmarked)
1 to 5 µM

Now give it for Cn1cc(-c2ncc(C(=O)N3CCc4[nH]cnc4C3c3nc4ccc(Br)cc4o3)o2)cn1 (centres unmarked) too.
≥ 5 µM

Entry to check: COc1ccc(-c2nnc(C(=O)N3CCc4[nH]cnc4C3c3nc4cc(C(F)(F)F)ccc4o3)o2)nc1 (centres unmarked)
1 to 5 µM

// repeat for CN(C)Cc1nnc(C(=O)N2CCc3[nH]cnc3C2c2nc3cc(F)ccc3o2)o1 (centres unmarked) and report
1 to 5 µM

Another compound to check: O=C(CCc1nccs1)N1CCc2[nH]cnc2C1c1nc2ccc(F)cc2o1 (centres unmarked)
1 to 5 µM

Moving on to the next compound: COCCNc1nnc(C(=O)N2CCc3[nH]cnc3C2c2nc3cc(F)ccc3o2)o1 (centres unmarked)
≥ 5 µM

Param item: O=C(CCc1cncs1)N1CCc2[nH]cnc2C1c1nc2ccc(F)cc2o1 (centres unmarked)
1 to 5 µM

Now give it for Cn1nc(C(C)(C)O)nc1C(=O)N1CCc2[nH]cnc2C1c1nc2cccc(F)c2o1 (centres unmarked) too.
1 to 5 µM
